Tested on: MCF-7 cells
measurement notes: Cell proliferation, microtiter plate assay (Cell Titer 96), MCF-7
Type: cell-based
condition label: Homo sapiens, MCF7, read-out: IC50 in μM for the growth inhibition of MCF-7 cells
Param label: returns satisfied when IC50 < 0.3 µM, returns not satisfied otherwise, including exact equality.

API: query returns whether the molecule falls strictly under 0.3 µM in IC50. Query: COCCOC1CCC2C3CCc4cc(O)c(OC)cc4C3CCC12C (centres unmarked) not satisfied

Proceed to CCc1cc2c(cc1OS(N)(=O)=O)CCC1C2CC[C@@]2(C)C1CC[C@@H]2CC#N (stereo in doubt) satisfied

Proceed to CCc1cc2c(cc1O)CCC1C2CC[C@]2(C)/C(=C/CO)CCC12 (some centres unmarked) [Compound 17b] not satisfied

Proceed to COc1cc2c(cc1O)CCC1C2CC[C@@]2(C)C1CC[C@@H]2NCCN(C)C (some centres unmarked) not satisfied

Proceed to COc1cc2c(cc1OS(N)(=O)=O)CCC1C2CC[C@]2(C)/C(=C/C#N)CCC12 (some centres unmarked) satisfied

Proceed to CCOC(=O)/C=C1\CCC2C3CCc4cc(OS(N)(=O)=O)c(CC)cc4C3CC[C@]12C (stereo in doubt) not satisfied

Proceed to CCOC(=O)/C=C1/CCC2C3CCc4cc(O)c(CC)cc4C3CC[C@]12C (some centres unmarked) [Compound 14a] not satisfied
